- Experimental system: Cytochrome P450 2D6 (Homo sapiens, UniProt P10635)
- Sequence (P10635 whole entry): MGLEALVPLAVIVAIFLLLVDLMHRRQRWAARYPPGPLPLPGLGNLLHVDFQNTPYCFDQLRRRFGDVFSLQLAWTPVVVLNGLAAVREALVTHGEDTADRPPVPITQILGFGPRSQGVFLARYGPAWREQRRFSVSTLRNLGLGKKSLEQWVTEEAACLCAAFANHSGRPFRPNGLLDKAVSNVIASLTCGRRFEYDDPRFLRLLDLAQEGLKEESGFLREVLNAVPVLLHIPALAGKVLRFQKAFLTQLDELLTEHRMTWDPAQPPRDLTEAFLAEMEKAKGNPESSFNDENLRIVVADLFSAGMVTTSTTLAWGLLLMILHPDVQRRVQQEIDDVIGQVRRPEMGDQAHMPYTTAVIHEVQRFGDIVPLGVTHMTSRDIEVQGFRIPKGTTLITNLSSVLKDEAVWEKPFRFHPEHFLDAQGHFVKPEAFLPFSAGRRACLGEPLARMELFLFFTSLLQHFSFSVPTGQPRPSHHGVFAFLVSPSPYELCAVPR
pIC50: −log10 of the molar value.
Property label: pIC50

Param item: Cc1ccc(NC(=O)c2ccnc(C(F)(F)F)c2)cc1-c1ccc2c(c1)OC1(CCOCC1)NC2=O ; param system: Cytochrome P450 2D6 (Homo sapiens, UniProt P10635); output pIC50: < 4.52

====

- Test protocol: Clearance in mouse at 1 mg/kg, iv by LC-MS/MS analysis
- Format: ADME, organism-based
- Test conditions: in vivo
Property label: clearance

For Cc1ccc(NC(=O)c2ccnc(C(F)(F)F)c2)cc1-c1ccc2c(c1)OC1(CCOCC1)NC2=O the compound record lists clearance as 24.2 mL/min/kg

====

- Test protocol: Solubility of compound in PBS at pH 7.4
- Type: physicochemical
Property label: solubility (µM)
Give your result in µM as a bare value.

Input smiles	solubility, µM
Cc1ccc(NC(=O)c2ccnc(C(F)(F)F)c2)cc1-c1ccc2c(c1)OC1(CCOCC1)CC2=O	0.46

Now let's try a different one.
For Cc1ccc(NC(=O)c2ccnc(C(F)(F)F)c2)cc1-c1ccc2c(c1)OC1(CCOCC1)NC2=O the compound record lists solubility as 0.7

====

- Test protocol: AUC(0 to t) in rat at 2 mg/kg, po by LC-MS/MS analysis
- Type: ADME, organism-based
- Parameters: dose 2 mg/kg, route po
- Test conditions: in vivo
Property label: AUC(0-t) (ng·h/mL)
Give your result in ng·h/mL as a bare value.

For Cc1ccc(NC(=O)c2ccnc(C(F)(F)F)c2)cc1-c1ccc2c(c1)OC1(CCOCC1)NC2=O the molecule record lists AUC(0-t) as 517

====

- Test protocol: Cmax in rat at 2 mg/kg, po by LC-MS/MS analysis
- Format: ADME, organism-based
- Set-up: dose 2 mg/kg, route po
- Test conditions: in vivo
Property label: Cmax (ng/mL)
Give your result in ng/mL as a bare value.

For Cc1ccc(NC(=O)c2ccnc(C(F)(F)F)c2)cc1-c1ccc2c(c1)OC1(CCOCC1)NC2=O the compound record lists Cmax as 52.1
